# protocol.description: protease stability score; higher = more stable; yeast display proteolysis, trypsin and chymotrypsin;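 further: relative to predicted unfolded state with 0 unfolded-like and 1 meaning tenfold more protease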
measured.quantity: protease stability score

Measured protease stability score, `SDEEHSLKRMWKELAHAMMTGDEHTVTELLDPHVRFEYGEFDLHGREDWLEFLREIRILIHHFEVRHINNFENHINTDGFTDIIIIIGDKDIRRRRKTQYFQVKVNGQWLFRSIHVR` : 1.41

Measured protease stability score, `DDEEKEDKDAIKLLVKFWETGDWENISRMMDPHVRLEVGEFTYHGREHFSRLYLEQYERVDHIQFRIHHLEVVGDKMTADTEVHIDINGRHIRLRTHINMIKINGRWRLHSVLIN` : 1.48

Measured protease stability score, `DETTELTQTVSQVFLDIWRTGDEDALRHLADPNTRLEVGEKTFHGRERVTEYVSRFKNVTVHLRRVTVQGNKVHIDSEMDFNGRKSDLHVELLVVDGRLKEIHVDIRWL` : 1.84

Measured protease stability score, `DEQEELSQLLAEIVIELTKTGDEHTLERLMDPHVRANINGVELHGRKKVREFLEEWLRRVKNVRLHIDDRTVQGEKIIVDGTWNVGDKSFRIEFIVIIINGRHTSFNVLDI` : 1.51

Measured protease stability score, `SEVEHALHEILEILVKIMKTGNFEDLIRNFDPHVQLEFNGKRYHGREAEHFLRERFDHNRHHHVHEVRVQGDKVELHGKLIGEFNGREEEVHIDIIAHKINGRWIFKSVHFR` : 2.15

Measured protease stability score, `DELEEISDTALKMFEHVVKTGDWRELEKLLDPNVKIYYNGREYHGREEAVRIWKEILDRFGADHFELRLRHKHVQGDKVSYHIELRLHYDGKTHHTFMRIIFLKVDGKWLEHELHIH` : 2.38

Measured protease stability score, `DEDEKVVKLVFNEIREARRTGDEEKLHELFDPHVRLEQGDKNIHGREYMITQWRELRFHDYRINITHRTTYNGVAKVDGEVSVDYRIDGVRFHDKFRIKIVILKFDGRWMIHSEHIE` : 0.822

Measured protease stability score, `DELEENSRLALELWINSFLTGDEDTTEKMADPHVRLIIDGKLFHGREAFSEHMLERSLRADHTEVRLHDRKIVGDKLIIDTRIHSHVNGVDVTLNVLLIMHKYDGRWRIHSVEIH` : 1.23

Measured protease stability score, `SEDHEAFDSMIQSWLDVYLTGDEDIMLELFDPRMRVDINGKDIHGMHHYTDLLHKVRRERGFEEHLRIEDSKVINGKAEFHTHVHIRQGDKNMEFEVTIVVLKINGKWWIKHIEIT` : 0.922

Measured protease stability score, `DDTDKLLKEYLEMEMEMIRTGNEHIFTRLADPNVRIEQGDKHFHGREEYKRLMEEHFEKIQHAKIEFRVHDIKRIGDKMYIRGEFIVHVGEYHESQDRIFINRKIDGRWYVEEIIIR` : 1.25

Measured protease stability score, `NEERSHSEEVARLISHAWETGDEETLREQVDPHVKLVIGDKTFHGREEALTIIVQLRLRTVEIHDMKVVNGRLNLFTLWHIEIDGRRVLHHVVIHIEKIDGRWVMTEVRVH` : 2.1

---

Can you tell me protease stability score for the items I'm about to list?
# protocol.description: protease stability score; higher = more stable; yeast display proteolysis, trypsin and chymotrypsin;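 further: relative to predicted unfolded state with 0 unfolded-like and 1 meaning tenfold more protease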

Measured protease stability score, `SETKKLWKDLADEVLRAWETGNEEEMEKMLDPHTRLHIHINGRDFHAHGRENIIRMMKFTLDFLGIDHFILRRVTYINGVVHIHQQVIINGQESNVRLEVEIIDGVWHEISVDIH` : 1.44

Measured protease stability score, `SEDERYAEIADRIVRHSQETGDETDHMRMMDPDVRIEIGDKRYHGRELEHKLLKIWGVTRIEYDVRSIEVQGEKVRIDGVINFNGVELKIILYVLKFNGKWSYTKVEIQ` : 1.84

Measured protease stability score, `NEDEDWLRKVLHLLLHAAETGDEEILLHLLDPNARFIQGDKFKVGMDILETWIRKIKNLRIHDFELKDMRVYNGRIEVDGHLDRIINGQRERTDIILFLLKVDGRWYFEEIRIS` : 2.09

Measured protease stability score, `DEDERLAEEFFEKFTRDIYTGDWRALRELLDPNVRLHINGRNHHGREELLYFEIEIYRRADHVEHRLREVTLFDGRVHVDVEIILHQGDKLIVLHVILFMEKVDGRWILRRKEVR` : 1.5

Measured protease stability score, `THEEEIFRRIAELIIDALTTGDEQLLRDLADPHVRQILIIDGREITVHGREEVFELLKEHIDELRIHRVNIEHMDVVGNKVTLDGRMDGYYGDKRTRLEFRIHIDIVNGKLKELTITMR` : 2.16

Measured protease stability score, `DYHEEIMRKVHEFFLAMVTTGDEEMIEKLFDPHVRIDINGRDHHGRDVAVKIWEELWREIRFKHVHLHDMKSFNGVLHLHVREKVDVNGRDLIIETHFVIRKFDGQWHLHSLKIN` : 1.38

Measured protease stability score, `DEETKKLRKFMEQFIEALRTGDEEILEHLIDPNVRNIVGDKQEHGRELLLTWLVKYKGVRWMIDHITIINGVIEIHGTLQVGDKEISIHIHVLVINGKVKSVEIREN` : 1.47

Measured protease stability score, `DDEKREMVEMLKIFIHNFLTGDWRTMEKLLDPDARFIINGQTFHGREWVRHSLHVFLHQFEHIHHIVIHDIDLQGDKVNIDGKLDGTVNGKRRLLDSHWHLRVVNGRVKEIEIHIH` : 2.12

Measured protease stability score, `SEDEEFAEKYLKEWVERVRTGDEDHLWKLLDPDPRIRIDGKEIIGREIAVKHMSEIRPTSIRLTSFHSQGDKINVDGETDGEFNGVRQRQRVIYIILKVDGRWLLHSVEFK` : 1.05

Measured protease stability score, `SEEEEDTERALRLELNLLMTGDEEQFWKNMDPHVRTHFNGQERHGREYATHVLRQLGVKHVRLHDVRIIGDKIDIDMRTNVDGRIFRVHIHSEKVNGRWHIHEFFIE` : 1.07

Measured protease stability score, `SEREESFEKWVEMYERALQTGDEEHISRLMDPNARSNINGVELHGREQTLEWLRHVKENLGVERVDVRVNLHRYRVIGNYIESDQELILIYNGREFRFHFHFIARKINGRWVVDRLEIK` : 2.51

src = the NTF2 design screens of Basanta et al. (2020)
